Target: Quinolone resistance protein NorA (Staphylococcus aureus) (UniProt P0A0J7)
Sequence (whole entry): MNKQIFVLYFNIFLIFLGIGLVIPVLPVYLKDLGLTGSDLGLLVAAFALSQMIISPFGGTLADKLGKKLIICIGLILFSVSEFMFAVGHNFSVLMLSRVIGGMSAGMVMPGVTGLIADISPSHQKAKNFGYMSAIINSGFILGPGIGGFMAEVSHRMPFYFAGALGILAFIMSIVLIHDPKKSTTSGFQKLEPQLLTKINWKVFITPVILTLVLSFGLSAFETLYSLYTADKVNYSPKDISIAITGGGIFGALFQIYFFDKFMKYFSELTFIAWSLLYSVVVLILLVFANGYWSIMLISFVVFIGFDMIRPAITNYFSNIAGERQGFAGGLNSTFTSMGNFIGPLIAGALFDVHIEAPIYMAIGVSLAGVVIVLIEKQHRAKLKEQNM
Test: Inhibition of NorA efflux pump overexpressed in Staphylococcus aureus 1199B assessed as concentration required for four-fold reduction in ethidium bromide MIC measured at every 3 mins interval for 30 mins by fluorescence analysis
measured.endpoint: log10(MEC) (log10 of the value in µg/mL)
Lab note - MEC converted to log10 from values in µg/mL.

>>> number("CCC(/C=C/C(=O)N1CCC[C@@H]1C(=O)OC)=C\\c1ccc2c(c1)OCO2")
0.49
>>> number("CCC(/C=C/C(=O)N[C@@H](Cc1ccccc1)C(=O)OC)=C\\c1ccc2c(c1)OCO2")
0.80

Endpoint output: log10(MEC) of CCCCC(=O)NC1(CC(=O)NNc2ccccc2)CCN(C(=O)/C=C/C(=C/c2ccc3c(c2)OCO3)CC)CC1 . Value? 0.49

# iterate: CCC(/C=C/C(=O)N[C@H](C(=O)OC)C(C)(C)C)=C\c1ccc2c(c1)OCO2 1.40

Okay, and CCC(/C=C/C(=O)N1CCCCC1)=C\c1ccc2c(c1)OCO2 ? 1.10

# repeat for COC(=O)[C@@H](NC(=O)/C=C/C=C/c1ccc2c(c1)OCO2)C(C)(C)C 1.70

Another: COC(=O)CC1(CNC(=O)/C=C/C=C/c2ccc3c(c2)OCO3)CCCCC1 1.70

====

molecular target: Quinolone resistance protein NorA (Staphylococcus aureus); assay: Inhibition of NorA efflux pump overexpressed in Staphylococcus aureus 1199B assessed as concentration required for four-fold reduction in ciprofloxacin MIC measured after 24 hrs by broth checkerboard method relative to control
Form field: MEC (one value per entry).
Your answer should be a plain number; it is taken to be in µg/mL.

>>> number("COC(=O)[C@@H](NC(=O)/C=C/C=C/c1ccc2c(c1)OCO2)C(C)(C)C")
12.5
>>> number("COC(=O)CC1(CNC(=O)/C=C/C=C/c2ccc3c(c2)OCO3)CCCCC1")
12.5
>>> number("CCC(/C=C/C(=O)N1CCCCC1)=C\\c1ccc2c(c1)OCO2")
12.5
>>> number("CCC(/C=C/C(=O)N1CCC(CC(=O)NC(C)(C)C(=O)OC)(NC(C)=O)CC1)=C\\c1ccc2c(c1)OCO2")
25
>>> number("CCC(/C=C/C(=O)NCC1(CC(=O)OC)CCCCC1)=C\\c1ccc2c(c1)OCO2")
25

Given the compound CCC1CCC(CC(=O)OC)(NC(=O)/C=C/C=C/c2ccc3c(c2)OCO3)CC1 (configuration not stated) , what is its reported MEC? 50

====

The compounds listed here are annotated with their MEC.
target: Quinolone resistance protein NorA (Staphylococcus aureus); test: Inhibition of NorA efflux pump overexpressed in Staphylococcus aureus 1199B assessed as concentration required for four-fold reduction in ciprofloxacin MIC measured after 24 hrs by broth checkerboard method relative to control
The reply should be a number in µg/mL, with the unit left off.

>>> number("CCC(/C=C/C(=O)N[C@H](C(=O)OC)C(C)(C)C)=C\\c1ccc2c(c1)OCO2")
12.5
>>> number("CCCCC(=O)NC1(CC(=O)NNc2ccccc2)CCN(C(=O)/C=C/C(=C/c2ccc3c(c2)OCO3)CC)CC1")
6.25
>>> number("CCC(/C=C/C(=O)N1CCC[C@@H]1C(=O)OC)=C\\c1ccc2c(c1)OCO2")
3.12

For the compound CCC(/C=C/C(=O)NC1(CC(=O)OC)CCCCC1)=C\c1ccc2c(c1)OCO2 , what MEC is on record? 50

Cool, now CCC(/C=C/C(=O)N[C@@H](Cc1ccccc1)C(=O)OC)=C\c1ccc2c(c1)OCO2 25

====

# key: entry, value: fold change (FC)
Molecular target: Quinolone resistance protein NorA (Staphylococcus aureus)
Sequence (whole entry): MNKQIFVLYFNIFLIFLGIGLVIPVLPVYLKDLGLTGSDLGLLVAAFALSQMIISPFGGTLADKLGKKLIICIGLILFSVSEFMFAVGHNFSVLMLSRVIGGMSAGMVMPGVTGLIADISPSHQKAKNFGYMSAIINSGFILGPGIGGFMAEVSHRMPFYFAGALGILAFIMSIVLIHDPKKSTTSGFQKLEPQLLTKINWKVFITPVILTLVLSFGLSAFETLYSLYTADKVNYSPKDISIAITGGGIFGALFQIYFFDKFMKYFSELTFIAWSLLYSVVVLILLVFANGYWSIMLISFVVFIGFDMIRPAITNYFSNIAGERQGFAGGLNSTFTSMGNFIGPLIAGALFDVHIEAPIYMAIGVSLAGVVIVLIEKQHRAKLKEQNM
Assay: Inhibition of NorA efflux pump in Staphylococcus aureus 1199 assessed as fold reduction in ethidium bromide MIC at […] measured at every 3 mins interval for 30 mins by fluorescence analysis
Details: 12.5 ug/ml
Output spec: single numeric token, no unit.

Please review the entries below; each comes with its answer.
>>> number("COC(=O)[C@@H](NC(=O)/C=C/C=C/c1ccc2c(c1)OCO2)C(C)(C)C")
0
>>> number("CCC(/C=C/C(=O)N[C@@H](Cc1ccccc1)C(=O)OC)=C\\c1ccc2c(c1)OCO2")
2
>>> number("CCC(/C=C/C(=O)N1CCCCC1)=C\\c1ccc2c(c1)OCO2")
0
>>> number("CCC(/C=C/C(=O)N[C@H](C(=O)OC)C(C)(C)C)=C\\c1ccc2c(c1)OCO2")
2
>>> number("COC(=O)CC1(CNC(=O)/C=C/C=C/c2ccc3c(c2)OCO3)CCCCC1")
0
>>> number("O=C(/C=C/C=C/c1ccc2c(c1)OCO2)N1CCCCC1")
0

Any idea what its fold change (FC) is? The compound is CCC(/C=C/C(=O)N1CCC[C@@H]1C(=O)OC)=C\c1ccc2c(c1)OCO2 2

Now the same for CCCCC(=O)NC1(CC(=O)NNc2ccccc2)CCN(C(=O)/C=C/C(=C/c2ccc3c(c2)OCO3)CC)CC1 4

====

Target: Quinolone resistance protein NorA (Staphylococcus aureus) (UniProt P0A0J7)
Sequence (whole entry): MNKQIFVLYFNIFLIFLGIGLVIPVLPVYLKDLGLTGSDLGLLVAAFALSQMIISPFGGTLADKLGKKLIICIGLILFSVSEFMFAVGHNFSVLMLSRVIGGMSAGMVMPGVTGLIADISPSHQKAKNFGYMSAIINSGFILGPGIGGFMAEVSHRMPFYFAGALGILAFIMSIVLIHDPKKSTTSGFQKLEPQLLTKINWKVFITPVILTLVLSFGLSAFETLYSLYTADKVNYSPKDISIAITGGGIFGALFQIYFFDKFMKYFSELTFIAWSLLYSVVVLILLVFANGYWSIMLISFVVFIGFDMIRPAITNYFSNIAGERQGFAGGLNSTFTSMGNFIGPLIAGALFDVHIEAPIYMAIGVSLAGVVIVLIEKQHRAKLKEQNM
Experiment: Inhibition of NorA efflux pump overexpressed in Staphylococcus aureus 1199B assessed as fold reduction in ciprofloxacin MIC at 12.5 ug/ml measured after 24 hrs by broth checkerboard method
measured.endpoint: fold change (FC)

>>> result("CCC(/C=C/C(=O)N[C@@H](C)C(=O)OC)=C\\c1ccc2c(c1)OCO2")
0

May I ask what fold change (FC) has been recorded for O=C(/C=C/C=C/c1ccc2c(c1)OCO2)N1CCCCC1 ? 0

====

Catalogue of compounds with associated fold change (FC)
target: Quinolone resistance protein NorA (Staphylococcus aureus); test: Inhibition of NorA efflux pump overexpressed in Staphylococcus aureus 1199B assessed as fold reduction in ethidium bromide MIC at 12.5 ug/ml measured at every 3 mins interval for 30 mins by fluorescence analysis

Worked examples, 3 compounds total:
>>> result("CCCCC(=O)NC1(CC(=O)NNc2ccccc2)CCN(C(=O)/C=C/C(=C/c2ccc3c(c2)OCO3)CC)CC1")
8
>>> result("COC(=O)CC1(CNC(=O)/C=C/C=C/c2ccc3c(c2)OCO3)CCCCC1")
2
>>> result("COC(=O)[C@@H](NC(=O)/C=C/C=C/c1ccc2c(c1)OCO2)C(C)(C)C")
2

Please turn your attention to the following entry.
Item under review: CCC(/C=C/C(=O)N1CCCCC1)=C\c1ccc2c(c1)OCO2 . Reported fold change (FC)? 4

The reported numbers originate from ChEMBL document CHEMBL4477264.
